src = patent US20170165337A1

Catalogue of binders with associated peptide exchange yield
- testedSystem: T1, HLA-A*02:01 (human)
- T1 construct: MHC class I monomer of the UV-ligand exchange assay; also called peptide-receptive MHC molecules; MHC class I
- protocolDetails: UV peptide-exchange ELISA

FLSDQPEPYL | 20 to 50%

query: Give the value of peptide exchange yield reported for the following: ALLSSQLAL
result: 50 to 75%

query: Give the value of peptide exchange yield reported for the following: YLIEPDVELQRI
result: 50 to 75%

query: Give the value of peptide exchange yield reported for the following: GLQAKIQEA
result: 50 to 75%

query: Give the value of peptide exchange yield reported for the following: SLYSALQQA
result: 50 to 75%

query: Give the value of peptide exchange yield reported for the following: VMDTHLVNI
result: ≥ 75%

query: Give the value of peptide exchange yield reported for the following: QLIPKLIFL
result: 50 to 75%

query: Give the value of peptide exchange yield reported for the following: VLDDRELLL
result: 50 to 75%
